- assayed.system: IL-17RA/IL17RC dimerization induced by IL-17A (Homo sapiens, UniProt Q16552)
- Sequence (Q16552 24-155): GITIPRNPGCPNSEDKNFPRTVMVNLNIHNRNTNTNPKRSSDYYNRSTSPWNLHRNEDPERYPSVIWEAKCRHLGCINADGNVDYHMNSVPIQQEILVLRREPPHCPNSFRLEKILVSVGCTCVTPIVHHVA
- assay.explanation: IL-17RA/IL17RC dimerization assay in response to IL-17A (PathHunter Cytokine Receptor Assay)
- Type: cell-based
- stated.conditions: IL-17A at EC80; read-out: IC50 in IL-17RA/IL7RC dimerization assay
- Procedure: The peptides of Table 7 were tested for their ability to inhibit the binding of IL-17A to its receptor and the subsequent interaction of IL-17RA and IL17RC. […] In the PathHunter® Cytokine Receptor Assay, one cytokine receptor chain is tagged with a small peptide epitope ProLink (PK) and the other chain is tagged with Enzyme Acceptor (EA). […] This interaction generates an active unit of b-galactosidase, which is detected using a chemiluminescent substrate. […]
pIC50: −log10 of the molar value. Residues, ends and D or L forms follow the SMILES beside them.
metric.name: pIC50

Briefly, pIC50 measured for CC[C@H](C)[C@H](NC(C)=O)C(=O)N[C@@H](Cc1c[nH]cn1)C(=O)N[C@H](C(=O)N[C@H](C(=O)N[C@@H](CC(C)C)C(=O)N1CCC[C@H]1C(=O)N[C@@H](C)C(=O)N[C@@H](CC(=O)O)C(=O)N[C@@H](CC(C)C)C(=O)N[C@@H](Cc1c[nH]c2ccccc12)C(=O)N[C@@H](CC(=O)O)C(=O)N[C@@H](Cc1c[nH]c2ccccc12)C(=O)N[C@H](C(=O)N[C@@H](CC(N)=O)C(=O)N[C@@H](CCCCN)C(N)=O)[C@@H](C)CC)[C@@H](C)O)C(C)C [SEQ ID NO: 181] (Ac-IHVTLPADLWDWINK-NH2) : > 5.00

---

- assayed.system: IL-17RA/IL17RC dimerization induced by IL-17A (Homo sapiens, UniProt Q16552)
- assay.explanation: IL-17RA/IL17RC dimerization assay in response to IL-17A (PathHunter Cytokine Receptor Assay)
- Type: cell-based
- stated.conditions: IL-17A at EC80; read-out: IC50 in IL-17RA/IL7RC dimerization assay
Residues, ends and D or L forms follow the SMILES beside them.
metric.name: IC50

Solved cases (3 shown):
{"columns": ["molecule", "IC50"],
 "data": [
  ["CC[C@H](C)[C@H](NC(=O)[C@H](CCC(=O)O)NC(=O)[C@H](CC(C)C)NC(=O)[C@@H]1CCCN1C(=O)[C@@H](NC(=O)[C@H](CO)NC(=O)[C@@H](NC(=O)[C@H](CCCNC(=N)N)NC(=O)[C@H](CC(C)C)NC(C)=O)[C@@H](C)CC)C(C)C)C(=O)N[C@@H](Cc1ccccc1)C(=O)N[C@@H](CCC(=O)O)C(=O)N[C@@H](Cc1c[nH]c2ccccc12)C(=O)N[C@@H](CC(C)C)C(=O)N[C@@H](CCC(N)=O)C(=O)N[C@@H](Cc1c[nH]cn1)C(N)=O [SEQ ID NO: 252] (Ac-LRISVPLEIFEWLQH-NH2)", "< 10 µM"],
  ["CC(=O)N[C@H](C(=O)N[C@@H](CCCNC(=N)N)C(=O)N[C@@H](Cc1ccccc1)C(=O)N[C@@H](CCC(N)=O)C(=O)N[C@@H](Cc1ccccc1)C(=O)NCC(=O)N[C@@H](CCC(N)=O)C(=O)N[C@@H](CCC(=O)O)C(=O)N[C@@H](Cc1c[nH]c2ccccc12)C(=O)N[C@@H](Cc1ccc(O)cc1)C(=O)N[C@@H](CC(N)=O)C(=O)N[C@@H](Cc1ccccc1)C(=O)N[C@@H](Cc1ccccc1)C(=O)N[C@@H](CCCNC(=N)N)C(=O)N[C@@H](CCCNC(=N)N)C(N)=O)C(C)C [SEQ ID NO: 155] (Ac-VRFQFGQEWYNFFRR-NH2)", "< 0.5 µM"],
  ["CC[C@H](C)[C@H](NC(=O)[C@H](CCC(=O)O)NC(=O)[C@H](CCC(N)=O)NC(=O)[C@@H]1CCCN1C(=O)[C@@H](NC(=O)[C@H](CO)NC(=O)[C@H](Cc1ccccc1)NC(=O)[C@H](CCCNC(=N)N)NC(=O)[C@@H](NC(C)=O)C(C)C)C(C)C)C(=O)N[C@@H](Cc1ccc(O)cc1)C(=O)N[C@@H](CCC(=O)O)C(=O)N[C@@H](Cc1c[nH]c2ccccc12)C(=O)N[C@H](C(=O)N[C@@H](CCCNC(=N)N)C(=O)N[C@@H](CCCNC(=N)N)C(N)=O)C(C)C [SEQ ID NO: 251] (Ac-VRFSVPQEIYEWVRR-NH2)", "< 10 µM"]
]}

Shift focus to the following entry.
Briefly, IC50 measured for CC[C@H](C)[C@H](NC(=O)[C@@H](NC(=O)[C@@H](NC(=O)[C@H](CCCNC(=N)N)NC(=O)[C@@H](NC(C)=O)C(C)C)C(C)C)[C@@H](C)O)C(=O)N1CCC[C@H]1C(=O)N[C@@H](CCC(N)=O)C(=O)N[C@@H](CCC(=O)O)C(=O)N[C@@H](CC(C)C)C(=O)N[C@@H](Cc1c[nH]c2ccccc12)C(=O)N[C@@H](CCC(=O)O)C(=O)N[C@@H](Cc1c[nH]c2ccccc12)C(=O)N[C@H](C(=O)N[C@@H](CCCNC(=N)N)C(=O)N[C@@H](CCCNC(=N)N)C(N)=O)C(C)C [SEQ ID NO: 233] (Ac-VRVTIPQELWEWVRR-NH2) : < 10 µM

---

Exercise: for every item that follows, state its recorded pIC50.
- assayed.system: IL-17RA/IL17RC dimerization induced by IL-17A (Homo sapiens)
- assay.explanation: IL-17RA/IL17RC dimerization assay in response to IL-17A (PathHunter Cytokine Receptor Assay)
- Assay type: cell-based
- stated.conditions: IL-17A at EC80; read-out: IC50 in IL-17RA/IL7RC dimerization assay
pIC50: −log10 of the molar value. Residues, ends and D or L forms follow the SMILES beside them.

{"columns": ["compound", "pIC50"],
 "data": [
  ["CC[C@H](C)[C@H](NC(=O)[C@@H](NC(=O)[C@@H](NC(=O)[C@H](Cc1c[nH]cn1)NC(=O)[C@@H](NC(C)=O)C(C)C)C(C)C)[C@@H](C)O)C(=O)N1CCC[C@H]1C(=O)N[C@@H](CCC(N)=O)C(=O)N[C@@H](CC(=O)O)C(=O)N[C@@H](CC(C)C)C(=O)N[C@@H](Cc1c[nH]c2ccccc12)C(=O)N[C@@H](CCC(=O)O)C(=O)N[C@@H](Cc1c[nH]c2ccccc12)C(=O)N[C@H](C(=O)N[C@@H](CCCNC(=N)N)C(=O)N[C@@H](CCCNC(=N)N)C(N)=O)C(C)C [SEQ ID NO: 115] (Ac-VHVTIPQDLWEWVRR-NH2)", "> 6.30"]
]}

Briefly, pIC50 measured for CC[C@H](C)[C@H](NC(=O)[C@@H](NC(=O)[C@@H](NC(=O)[C@H](Cc1c[nH]cn1)NC(=O)[C@@H](NC(C)=O)C(C)C)C(C)C)[C@@H](C)O)C(=O)N1CCC[C@H]1C(=O)N[C@@H](C)C(=O)N[C@@H](CC(=O)O)C(=O)N[C@@H](Cc1ccccc1)C(=O)N[C@@H](Cc1c[nH]c2ccccc12)C(=O)N[C@@H](CCC(=O)O)C(=O)N[C@@H](Cc1c[nH]c2ccccc12)C(=O)N[C@H](C(=O)N[C@@H](CCCNC(=N)N)C(=O)N[C@@H](CCCNC(=N)N)C(N)=O)C(C)C [SEQ ID NO: 117] (Ac-VHVTIPADFWEWVRR-NH2) : > 6.30

---

Exercise: for every item that follows, state its recorded pIC50.
- assayed.system: IL-17RA/IL17RC dimerization induced by IL-17A (Homo sapiens)
- assay.explanation: IL-17RA/IL17RC dimerization assay in response to IL-17A (PathHunter Cytokine Receptor Assay)
- Assay type: cell-based
- stated.conditions: IL-17A at EC80; read-out: IC50 in IL-17RA/IL7RC dimerization assay
pIC50: −log10 of the molar value. Residues, ends and D or L forms follow the SMILES beside them.

{"columns": ["compound", "pIC50"],
 "data": [
  ["CC(=O)N[C@H](C(=O)N[C@@H](Cc1c[nH]cn1)C(=O)N[C@@H](Cc1ccccc1)C(=O)N[C@@H](CCC(N)=O)C(=O)N[C@@H](Cc1ccccc1)C(=O)N1CCC[C@H]1C(=O)N[C@@H](CCC(N)=O)C(=O)N[C@@H](CCC(=O)O)C(=O)N[C@@H](Cc1c[nH]c2ccccc12)C(=O)N[C@@H](Cc1ccc(O)cc1)C(=O)N[C@@H](CC(N)=O)C(=O)N[C@@H](Cc1c[nH]c2ccccc12)C(=O)N[C@@H](Cc1ccccc1)C(=O)N[C@@H](CCCNC(=N)N)C(=O)N[C@@H](CCCNC(=N)N)C(N)=O)C(C)C [SEQ ID NO: 154] (Ac-VHFQFPQEWYNWFRR-NH2)", "> 6.30"]
]}

Briefly, pIC50 measured for CC[C@H](C)[C@H](NC(=O)[C@@H](NC(=O)[C@@H](NC(=O)[C@H](Cc1c[nH]cn1)NC(=O)[C@@H](NC(C)=O)C(C)C)C(C)C)[C@@H](C)O)C(=O)N1CCC[C@H]1C(=O)N[C@@H](C)C(=O)N[C@@H](CCC(=O)O)C(=O)N[C@@H](Cc1c[nH]c2ccccc12)C(=O)N[C@@H](Cc1c[nH]c2ccccc12)C(=O)N[C@@H](CCC(=O)O)C(=O)N[C@@H](Cc1c[nH]c2ccccc12)C(=O)N[C@H](C(=O)N[C@@H](CCCNC(=N)N)C(=O)N[C@@H](CCCNC(=N)N)C(N)=O)C(C)C [SEQ ID NO: 123] (Ac-VHVTIPAEWWEWVRR-NH2) : > 6.30

The origin of these recorded values is patent US11236129B2.
